Test system: hTERT-HMEC;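 further: secreted proteins added to cultured cells, EdU pulse at the end, nuclei found by Hoechst imaging, EdU status from nuclear versus surrounding ring intensity ratio, PBS as neutral control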
test: percentage of EdU-negative (G0-arrested) nuclei per well, 72 h; higher = more G0 arrest
experimental context: protein concentration 0.225 µM; reference: sequence is the full UniProt precursor, the tested protein was the secreted form or ectodomain
reported endpoint: percentage of EdU-negative (%)
Give the number; % is assumed, so skip it.

>>> readout_value("MSSAARSRLTRATRQEMLFLALLLLPVVVAFARAEAEEDGDLQCLCVKTTSQVRPRHITSLEVIKAGPHCPTAQLIATLKNGRKICLDLQALLYKKIIKEHLES")
5.8
>>> readout_value("MASHSGPSTSVLFLFCCLGGWLASHTLPVRLLRPSDDVQKIVEELQSLSKMLLKDVEEEKGVLVSQNYTLPCLSPDAQPPNNIHSPAIRAYLKTIRQLDNKSVIDEIIEHLDKLIFQDAPETNISVPTDTHECKRFILTISQQFSECMDLALKSLTSGAQQATT [Q6EBC2]")
5.69

Next up:
Hello, I am looking for reported percentage of EdU-negative with hTERT-HMEC for MAFLPSWVCVLVGSFSASLAGTSNLSETEPPLWKESPGQLSDYRVENSMYIINPWVYLERMGMYKIILNQTARYFAKFAPDNEQNILWGLPLQYGWQYRTGRLADPTRRTNCGYESGDHMCISVDSWWADLNYFLSSLPFLAAVDSGVMGISSDQVRLLPPPKNERKFCYDVSSCRSSFPETMNKWNTFYQYLQSPFSKFDDLLKYLWAAHTSTLADNIKSFEDRYDYYSKAEAHFERSWVLAVDHLAAVLFPTTLIRSYKFQKGMPPRILLNTDVAPFISDFTAFQNVVLVLLNMLDNVDKSIGYLCTEKSNVYRDHSESSSRSYGNNS [Q6P5S2] . Could you help?
5.82
